# Assay procedure: In-vitro absorption, Caco-2 A-B permeability
# Assay type: in vitro ADME, human
# Condition parameters: human, Caco-2, pH 7.4, Caco-2 A-B; without verapamil; 1.0E−05M; read-out: Permeability 2nd
Structures can show the parent of a compound that is named as a salt. Non-standard residues stand in square brackets, D forms with d. Residues, ends and D or L forms follow the SMILES beside them. Dopa = N[C@@H](Cc1ccc(O)c(O)c1)C(=O)O
Papp A→B at 60 min, 10 μM vs 0.2 ×10⁻⁶ cm/s: less than gives Fulfilled; not less than gives Not fulfilled.

[
  {
    "Molecule": "NC(=O)C[C@H](NC(=O)[C@@H](N)Cc1ccc(O)c(O)c1)C(=O)O [LD-Asn TFA salt, Levodopa Asparagine TFA Salt] (H-[Dopa]-Asn-OH)",
    "Qualitative label": "Not fulfilled"
  },
  {
    "Molecule": "N=C(N)NCCC[C@H](NC(=O)[C@@H](N)Cc1ccc(O)c(O)c1)C(=O)O [LD-Arg TFA salt, Levodopa Arginine TFA Salt]",
    "Qualitative label": "Fulfilled"
  },
  {
    "Molecule": "NC(=O)CC[C@H](NC(=O)[C@@H](N)Cc1ccc(O)c(O)c1)C(=O)O [LD-Gln TFA salt, Levodopa Glutamine TFA Salt] (H-[Dopa]-Gln-OH)",
    "Qualitative label": "Not fulfilled"
  },
  {
    "Molecule": "N[C@@H](Cc1ccc(O)c(O)c1)C(=O)NCC(=O)O [LD-Gly TFA salt, Levodopa Glycine TFA Salt]",
    "Qualitative label": "Fulfilled"
  },
  {
    "Molecule": "N[C@@H](CSC[C@@H](NC(=O)[C@@H](N)Cc1ccc(O)c(O)c1)C(=O)O)C(=O)O (single isomer, unassigned; peak 1) [LD-LA1 TFA salt, Levodopa Lanthionine Peak 1 TFA Salt]",
    "Qualitative label": "Not fulfilled"
  },
  {
    "Molecule": "N[C@@H](CSC[C@H](NC(=O)[C@@H](N)Cc1ccc(O)c(O)c1)C(=O)O)C(=O)O (single isomer, unassigned; peak 2) [LD-LA2 TFA salt, Levodopa Lanthionine Peak 2 TFA Salt]",
    "Qualitative label": "Not fulfilled"
  },
  {
    "Molecule": "N[C@@H](Cc1ccc(O)c(O)c1)C(=O)N[C@@H](Cc1c[nH]c2ccccc12)C(=O)O [LD-Trp TFA salt, Levodopa Tryptophan] (H-[Dopa]-Trp-OH)",
    "Qualitative label": "Fulfilled"
  }
]

====

# Test system: P-gp
# Assay procedure: In-vitro absorption, Caco-2 A-B permeability
# Type: in vitro ADME, human
# Condition parameters: human, Caco-2, pH 7.4, with verapamil 100 μM on both the A and B sides, Caco-2 A-B; in the presence of verapamil; read-out: Percent Recovery 1st
Structures can show the parent of a compound that is named as a salt. Non-standard residues stand in square brackets, D forms with d. Residues, ends and D or L forms follow the SMILES beside them. Dopa = N[C@@H](Cc1ccc(O)c(O)c1)C(=O)O
API: label(entry) gives TRUE if the entry's recovery at 60 min, 10 μM is strictly smaller than 40%; on equality or larger values it gives FALSE.

[
  {
    "Molecule": "N=C(N)NCCC[C@H](NC(=O)[C@@H](N)Cc1ccc(O)c(O)c1)C(=O)O [LD-Arg TFA salt, Levodopa Arginine TFA Salt]",
    "Qualitative label": "TRUE"
  },
  {
    "Molecule": "N[C@@H](CSC[C@@H](NC(=O)[C@@H](N)Cc1ccc(O)c(O)c1)C(=O)O)C(=O)O (single isomer, unassigned; peak 1) [LD-LA1 TFA salt, Levodopa Lanthionine Peak 1 TFA Salt]",
    "Qualitative label": "FALSE"
  },
  {
    "Molecule": "N[C@@H](CSC[C@H](NC(=O)[C@@H](N)Cc1ccc(O)c(O)c1)C(=O)O)C(=O)O (single isomer, unassigned; peak 2) [LD-LA2 TFA salt, Levodopa Lanthionine Peak 2 TFA Salt]",
    "Qualitative label": "FALSE"
  },
  {
    "Molecule": "N[C@@H](Cc1ccc(O)c(O)c1)C(=O)N[C@@H](Cc1c[nH]c2ccccc12)C(=O)O [LD-Trp TFA salt, Levodopa Tryptophan] (H-[Dopa]-Trp-OH)",
    "Qualitative label": "FALSE"
  }
]

====

# Assay procedure: In-vitro metabolism of LDAA compounds using liver microsomes
# Type: in vitro ADME, human
# Condition parameters: both sexes, human, pooled human liver microsomes, pH 7.4, 1.0E−07M; 0.1 mg/mL microsomal protein; read-out: Half-Life (minute) 1st
Counter-ions that a name gives are not always drawn. Non-standard residues stand in square brackets, D forms with d. Residues, ends and D or L forms follow the SMILES beside them. Dopa = N[C@@H](Cc1ccc(O)c(O)c1)C(=O)O

[
  {
    "Compound": "NC(=O)C[C@H](NC(=O)[C@@H](N)Cc1ccc(O)c(O)c1)C(=O)O [LD-Asn TFA salt, Levodopa Asparagine TFA Salt] (H-[Dopa]-Asn-OH)",
    "half-life at 0.1 μM (min)": 74.4
  },
  {
    "Compound": "NC(=O)CC[C@H](NC(=O)[C@@H](N)Cc1ccc(O)c(O)c1)C(=O)O [LD-Gln TFA salt, Levodopa Glutamine TFA Salt] (H-[Dopa]-Gln-OH)",
    "half-life at 0.1 μM (min)": 155
  },
  {
    "Compound": "N[C@@H](Cc1ccc(O)c(O)c1)C(=O)NCC(=O)O [LD-Gly TFA salt, Levodopa Glycine TFA Salt]",
    "half-life at 0.1 μM (min)": 54.5
  },
  {
    "Compound": "N[C@@H](CSC[C@H](NC(=O)[C@@H](N)Cc1ccc(O)c(O)c1)C(=O)O)C(=O)O (single isomer, unassigned; peak 2) [LD-LA2 TFA salt, Levodopa Lanthionine Peak 2 TFA Salt]",
    "half-life at 0.1 μM (min)": 75.7
  },
  {
    "Compound": "N[C@@H](Cc1ccc(O)c(O)c1)C(=O)N[C@@H](Cc1c[nH]c2ccccc12)C(=O)O [LD-Trp TFA salt, Levodopa Tryptophan] (H-[Dopa]-Trp-OH)",
    "half-life at 0.1 μM (min)": 64
  }
]

====

# Test system: P-gp
# Assay procedure: In-vitro absorption, Caco-2 A-B permeability
# Assay type: in vitro ADME, human
# Condition parameters: human, Caco-2, pH 7.4, with verapamil 100 μM on both the A and B sides, Caco-2 A-B; in the presence of verapamil; read-out: Percent Recovery 2nd
Structures can show the parent of a compound that is named as a salt. Non-standard residues stand in square brackets, D forms with d. Residues, ends and D or L forms follow the SMILES beside them. Dopa = N[C@@H](Cc1ccc(O)c(O)c1)C(=O)O

[
  {
    "Compound": "N[C@@H](Cc1ccc(O)c(O)c1)C(=O)NCC(=O)O [LD-Gly TFA salt, Levodopa Glycine TFA Salt]",
    "Units text": "%",
    "recovery at 60 min, 10 μM": 59
  },
  {
    "Compound": "NC(=O)C[C@H](NC(=O)[C@@H](N)Cc1ccc(O)c(O)c1)C(=O)O [LD-Asn TFA salt, Levodopa Asparagine TFA Salt] (H-[Dopa]-Asn-OH)",
    "Units text": "%",
    "recovery at 60 min, 10 μM": 62
  },
  {
    "Compound": "N[C@@H](CSC[C@@H](NC(=O)[C@@H](N)Cc1ccc(O)c(O)c1)C(=O)O)C(=O)O (single isomer, unassigned; peak 1) [LD-LA1 TFA salt, Levodopa Lanthionine Peak 1 TFA Salt]",
    "Units text": "%",
    "recovery at 60 min, 10 μM": 67
  },
  {
    "Compound": "N[C@@H](Cc1ccc(O)c(O)c1)C(=O)O [LD (control), L-3,4-dihydroxyphenylalanine, reference compound]",
    "Units text": "%",
    "recovery at 60 min, 10 μM": 41
  },
  {
    "Compound": "N[C@@H](Cc1ccc(O)c(O)c1)C(=O)N[C@@H](Cc1ccc(O)cc1)C(=O)O [LD-Tyr TFA salt, Levodopa Tyrosine TFA Salt] (H-[Dopa]-Tyr-OH)",
    "Units text": "%",
    "recovery at 60 min, 10 μM": 39
  },
  {
    "Compound": "NCCCC[C@H](NC(=O)[C@@H](N)Cc1ccc(O)c(O)c1)C(=O)O [LD-Lys TFA salt, Levodopa Lysine TFA Salt] (H-[Dopa]-Lys-OH)",
    "Units text": "%",
    "recovery at 60 min, 10 μM": 33
  }
]
